Entries and their pIC50
# targetOfAssay: Fibroblast growth factor-2 (human)
# measurementNotes: SPR
pIC50: −log10 of the molar value.

Solved cases below.
Ac-ARACA-NH2 [Ac-ARACA-NH2]
< 2.52
Ac-ALPCA-NH2 [Ac-ALPCA-NH2]
< 2.52
Ac-ARPVA-NH2 [Ac-ARPVA-NH2]
< 2.52

Kindly consider the entry below.
### Prompt Entry Ac-ARPMA-NH2 [Ac-ARPMA-NH2] has what pIC50?
### Response < 2.52
